procedure.details: Cytotoxicity against HUVEC assessed as maximal tolerated dose by MTT assay
Assay type: cell-based
experimental.parameters: human, read-out: MTD

compound.structure	MNTC / µM
CCOC(=O)CNC(=O)C(=O)[C@H](COCc1ccccc1)NC(=O)[C@H](CC1CCCCC1)NC(=O)C(=O)c1cccs1	10
CCOC(=O)CNC(=O)C(=O)[C@H](COCc1ccccc1)NC(=O)[C@H](CC(C)C)NC(=O)c1cccc2c1C(=O)c1ccccc1-2	10

====

test.target: Cathepsin B (Homo sapiens) (UniProt P07858)
procedure.details: Inhibition of cathepsin B assessed as proteolytic activity at 40 nM by fluorimetric assay
Parameters: scale not given: the % may be the effect or the level left

compound	Activity (%)
CCOC(=O)CNC(=O)C(=O)C(COCc1ccccc1)NC(=O)[C@H](CC1CCCCC1)NC(=O)c1ccc(OC(C)=O)cc1 (some centres undefined)	91
N#C[C@H](COCc1ccccc1)NC(=O)[C@H](CC1CCCCC1)NC(=O)N1CCOCC1	104
CCOC(=O)CNC(=O)C(=O)C(COCc1ccccc1)NC(=O)[C@H](CC1CCCCC1)NC(=O)N1CCOCC1 (some centres undefined)	102
CCOC(=O)CNC(=O)C(=O)C(COCc1ccccc1)NC(=O)[C@H](CC1CCCCC1)NC(=O)c1cc(SC)ccc1Cl (some centres undefined)	92

====

Recorded pIC50 values for a group of molecules are listed next.
test.target: Cathepsin S (Homo sapiens, UniProt P25774)
Sequence (P25774 whole entry): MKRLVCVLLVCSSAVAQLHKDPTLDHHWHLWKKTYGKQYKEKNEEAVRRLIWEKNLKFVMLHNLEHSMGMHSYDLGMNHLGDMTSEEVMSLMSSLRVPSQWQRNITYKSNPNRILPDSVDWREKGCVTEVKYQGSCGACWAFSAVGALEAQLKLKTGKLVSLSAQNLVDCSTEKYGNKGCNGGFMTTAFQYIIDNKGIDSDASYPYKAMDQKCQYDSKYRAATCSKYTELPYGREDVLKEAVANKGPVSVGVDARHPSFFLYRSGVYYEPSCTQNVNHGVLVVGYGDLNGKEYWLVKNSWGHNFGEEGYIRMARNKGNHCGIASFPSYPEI
procedure.details: Inhibition of human recombinant cathepsin S expressed in Escherichia coli BL21 (DE3) after 10 mins by fluorescence assay
pIC50: −log10 of the molar value.

molecule	pIC50
CCOC(=O)CNC(=O)C(=O)[C@H](COCc1ccccc1)NC(=O)[C@H](CC1CCCCC1)NC(=O)C(=O)c1cccs1	8.18
CCOC(=O)CNC(=O)C(=O)C(COCc1ccccc1)NC(=O)[C@H](CC1CCCCC1)NC(=O)Cc1cccc2ccccc12 (stereo not given in full)	8.24
CCOC(=O)CNC(=O)C(=O)C(COCc1ccccc1)NC(=O)[C@H](CC1CCCCC1)NC(=O)c1cc(Br)ccc1NC(=O)OC(C)(C)C (stereo not given in full)	7.62
CCOC(=O)CNC(=O)C(=O)C(COCc1ccccc1)NC(=O)[C@H](CC1CCCCC1)NC(=O)c1cc(Cl)ccc1[N+](=O)[O-] (stereo not given in full)	8.10
CCOC(=O)CNC(=O)C(=O)C(COCc1ccccc1)NC(=O)[C@H](CC1CCCCC1)NC(=O)Cc1cccs1 (stereo not given in full)	8.14
CCOC(=O)CNC(=O)C(=O)C(COCc1ccccc1)NC(=O)[C@H](CC1CCCCC1)NC(=O)c1cc2ccccc2n1C (stereo not given in full)	8.15
CCOC(=O)CNC(=O)C(=O)C(COCc1ccccc1)NC(=O)[C@H](CC1CCCCC1)NC(=O)N1CCOCC1 (stereo not given in full)	8.36
CCOC(=O)CNC(=O)C(=O)[C@H](COCc1ccccc1)NC(=O)[C@H](CC(C)C)NC(=O)c1cccc2c1C(=O)c1ccccc1-2	8.06
CCOC(=O)CNC(=O)C(=O)C(COCc1ccccc1)NC(=O)[C@H](CC1CCCCC1)NC(=O)C1=CC(=O)CC(C)(C)O1 (stereo not given in full)	8.37
CCOC(=O)CNC(=O)C(=O)C(COCc1ccccc1)NC(=O)[C@H](CC1CCCCC1)NC(=O)c1cncc(C)n1 (stereo not given in full)	8.21
CCOC(=O)CNC(=O)C(=O)C(COCc1ccccc1)NC(=O)[C@H](CC1CCCCC1)NC(=O)c1cc(SC)ccc1Cl (stereo not given in full)	8.44
CCOC(=O)CNC(=O)C(=O)C(COCc1ccccc1)NC(=O)[C@H](CC1CCCCC1)NC(=O)c1ccc([N+](=O)[O-])s1 (stereo not given in full)	7.99
CCOC(=O)CNC(=O)C(=O)C(COCc1ccccc1)NC(=O)[C@H](CC1CCCCC1)NC(=O)c1ccc(OC(C)=O)cc1 (stereo not given in full)	8.70
CCOC(=O)CNC(=O)C(=O)C(COCc1ccccc1)NC(=O)[C@H](CC1CCCCC1)NC(=O)c1cccc(C)c1[N+](=O)[O-] (stereo not given in full)	8.25
CCOC(=O)CNC(=O)C(=O)C(COCc1ccccc1)NC(=O)[C@H](CC1CCCCC1)NC(=O)C1(C)CC1 (stereo not given in full)	8.47

Where these numbers come from: ChEMBL document CHEMBL1155553
